tested on: HBCx6; assay: Colony formation (CFU) assay; type: cell-based; settings: HBCx6, breast
READOUT KIND: pIC50
Please treat pIC50 as minus the base-10 logarithm of the molar concentration.

Entry under review: NC(=O)c1cccc2cn(-c3ccc([C@@H]4CCCNC4)cc3)nc12 [Niraparib, niraparib, reference compound] . Reported pIC50?
7.52

====

This listing pairs compounds with measured pIC50.
tested on: SUIT2; experiment: Colony formation (CFU) assay; assay type: cell-based; settings: SUIT-2; SUIT2, pancreas
pIC50: −log10 of the molar value.

COMPOUND	ASSAYED SYSTEM	pIC50
COc1ncnc(C2CC2)c1-c1ncc2cnn(Cc3ccc(-c4nc(C(F)(F)F)cn4C)cc3)c2n1	SUIT2	< 6.52

Would you kindly look at the next entry?
Entry under review: NC(=O)c1cccc2cn(-c3ccc([C@@H]4CCCNC4)cc3)nc12 [Niraparib, niraparib, reference compound] . Reported pIC50?
< 6.52
